Measured values drawn from BindingDB's records for patent US12473289 for this set.

pIC50: −log10 of the molar value.
Target or system Acyl-CoA (8-3)-desaturase (Homo sapiens): recorded pIC50 listed per item.
endpoint: pIC50

Worked cases, answers included:
>>> measvalue("COc1ccn2c(=O)c(-c3ccc(OC(F)(F)F)cc3F)c(C(F)(F)F)nc2c1 [US12473289, Example 1-9]")
8.23
>>> measvalue("O=c1ccn2c(=O)c(-c3cnn(CC(F)(F)C(F)(F)F)c3)c(C(F)(F)F)[nH]c2c1 [US12473289, Example 18]")
6.88
>>> measvalue("CSc1ccn2c(=O)c(-c3ccc(OCC(F)(F)F)cc3)c(C(F)(F)F)nc2c1 [US12473289, Example 1-35]")
7.98
>>> measvalue("Nc1ccn2c(=O)c(-c3ccc(OCC(F)(F)F)cc3)c(C(F)(F)F)nc2c1 [US12473289, Example 6-2]")
8.17

[A] COC(=O)c1ccn2c(=O)c(-c3ccc(OCC(F)(F)F)cc3)c(C(F)(F)F)nc2c1 [US12473289, Example 1-36]
[B] COc1cc2nc(C(F)(F)F)c(-c3cnn(C[C@@H]4CC4(F)F)c3)c(=O)n2cc1F [US12473289, Example 72]
Ask | Which item exceeds the other in pIC50, A or B ? Your answer should be the label of the entry you select.
Reply | B
